Where do these numbers come from? They come from PubChem BioAssay (NCI).

- Test system: SK-MEL-28 melanoma
- experiment.notes: NCI tumour cell line growth inhibition, 48 h
# TGI per entry
endpoint: TGI

compound=CO/N=C(\C([O-])=N\[n+]1cnn(CC(=O)OC(C)(C)C)c1)c1csc(NC(c2ccccc2)(c2ccccc2)c2ccccc2)n1 reading="> 10 µM"
compound=O=C(/C=C1\C(=O)N(Cc2ccccc2)c2ccccc21)c1ccc(OCCN2CCCCC2)cc1 reading="4.36 µM"
compound=COc1ccc2oc(-c3ccc(OC)c(OC)c3OC)cc(=O)c2c1 reading="> 100 µM"
compound=Cc1ccc(NC(=O)/C(Cc2cc(=O)oc3cc(O)ccc23)=N\NC(C)(C)C)cc1C reading="> 100 µM"
compound="CN(C)CCCC1(c2ccc(F)cc2)OCc2cc(-c3cc4ccccc4s3)ccc21 (stereo not given)" reading="3.22 µM"
compound=C[n+]1c2ccccc2nc2ccccc21 reading="3.1 µM"
compound=Cn1c(-c2ccccc2)c(/C=C/C2=[N+](C)c3ccccc3C2(C)C)c2ccccc21 reading="11.8 µM"
compound=CCOC(=O)CCN1C(=O)C(=O)N(c2ccc(OC)cc2)C1=S reading="> 100 µM"
compound=O=C(c1ccccc1)c1c(C(F)(F)F)n([O-])c2cc(C(F)(F)F)ccc2[n+]1=O reading="3.23 µM"
compound=O=C(O)/C(=C\c1ccc(O)cc1)c1cccc2ccccc12 reading="> 100 µM"

###

- Test system: UO-31 renal
- experiment.notes: NCI tumour cell line growth inhibition, 48 h
endpoint: GI50

structure_smiles=Cn1nc(C(F)(F)F)c(-c2cc(C(F)(F)F)cc(C(F)(F)F)c2)c1-c1ccc(OCc2ccc(Cl)cc2)cc1O endpoint=GI50 reading="1890 nM"
structure_smiles=C=C1C(=O)O[C@H]2[C@H]1CC/C(COC(=O)OC/C1=C/CC[C@@]3(C)O[C@H]3[C@H]3OC(=O)[C@@H](CN(C)C)[C@@H]3CC1)=C\CC[C@@]1(C)O[C@@H]21 endpoint=GI50 reading="1040 nM"
structure_smiles=C[n+]1c2ccccc2nc2ccccc21 endpoint=GI50 reading="2390 nM"
structure_smiles=Cc1cc(OCCOCCC(F)(F)P(=O)(O)O)ccc1CCc1cnc2c(N)nc3cc(CCC(=O)O)ccc3c2c1 endpoint=GI50 reading="> 100000 nM"

###

- System: NCI-H460 lung
- experiment.notes: NCI tumour cell line growth inhibition, 48 h
# TGI per entry
endpoint: TGI (µM)

compound="COC(=O)[C@@H](C)[C@H]1CC[C@@](C)(CCC2=C(C)CC3C=C(C)CCC3C2(C)C)OO1 (stereo not given in full)" endpoint=TGI endpoint_unit=µM bound_operator== reading=3.57
compound=COc1ccc(/C(C#N)=C/c2cc(OC)c(OC)c(OC)c2)cc1 endpoint=TGI endpoint_unit=µM bound_operator=> reading=100
compound="CC(=O)OC12c3ccccc3-c3ccccc3C1C(C(=O)O)C2C(=O)O (stereo not given)" endpoint=TGI endpoint_unit=µM bound_operator=> reading=10
compound=Cc1cc(Nc2ccc(NS(C)(=O)=O)cc2)c2c(ccc3nccc32)[nH]1 endpoint=TGI endpoint_unit=µM bound_operator== reading=46.5
compound="C[C@]12CC[C@H]3[C@@H](CC4SC(N)=NC45C/C(=N/NC(N)=O)CC[C@]35C)[C@@H]1CCC2=O (stereo not given in full)" endpoint=TGI endpoint_unit=µM bound_operator== reading=3.61
